- PROTOCOL DESCRIPTION: amyloid nucleation score (Sup35N fusion, yeast selection) (log enrichment); library NNK2; higher = more nucleation; inactive = no reads after selection;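 further: zero at mode of non-aggregating sequences after 7 days selection at 30°C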
# binning rule on amyloid nucleation score: Low: < -0.3; Mid: ≥ -0.3 and < 1; High: ≥ 1

Request: Note: place this substance into its band. Item: "DVKKYLRGYCIRPCLLSYLI"
Result: Low

Request: The entry to classify is "CIGSRRGQSTSSVYRWSHYL" ; which class holds it?
Result: Mid

Request: Entry "YVAAGLWVMWTGALKMRQAG" belongs to which category?
Result: Mid

Request: Kindly state the category for this substance: "LMIVKMTMFDATGHVGFLMV"
Result: High

Request: For "LWLVYSESWSMYAMS" , which amyloid nucleation score bin applies?
Result: High

Request: Which band does "NWFHVRTDCRRWGGRKVYYN" fall in?
Result: Low

Request: Each substance maps to one class by amyloid nucleation score. Which class for "GVIRILWDECRTSDYFGCGT" ?
Result: Mid

Request: In plain terms, what class is "LCNNKAYNDKLSPEPLAISR" ?
Result: Low

Request: Returns: class label. Input: "MQRTIYFS"
Result: Mid

Request: Bin? "HLWFLCRSYGGVLKFHTESV"
Result: High

Request: Band of "EWIIERRSL" ?
Result: Mid

Request: Hello team, could you let me know which band the following substance falls into: "SYDLELAT"
Result: Mid

Request: # bin label for "VMIWVTA"
Result: Mid

Request: Lab note: which band did "GSGNPGMSIFVKIY" land in?
Result: Low

Request: # classify by amyloid nucleation score band: "ILAYPFRCIETNSLLKMSPL"
Result: Mid

Request: Consider "DNSVHCSFSYFNLPELKGCY" . To which amyloid nucleation score class does it belong?
Result: High

Request: Class label required: "VFQSDECVFLCSN"
Result: Low

Request: Bin? "TRIRWWF"
Result: High

Request: For the record "FLVIVQPSHFGCSKSNKGVW" , report the class its amyloid nucleation score corresponds to.
Result: Mid

Request: Category lookup for the substance "IAVERS"
Result: Low

Request: Record "VFCINAFRALQTYCCWMYF" — which class?
Result: High

Request: // return the class label for "RCNQLIWTASDNWYYMWTTV"
Result: High

Request: Band of "SLQFVGYYFPFNRVCARSGA" ?
Result: Low

Request: Kindly state the category for this substance: "NLCSGTIVVFIGCMKAAWFV"
Result: High

Request: Record "MLLSCYFVVNE" — which class?
Result: High

Request: State the band of "SCDVTHGGLRQSKHGSGESG"
Result: High

Request: Bin this entry: "RVQDRYILNSVRQHHGAGQR"
Result: Mid

Request: Sort into band: "LTFGCG"
Result: Low

Request: Which amyloid nucleation score band matches "KLMFRHV" ?
Result: High

Request: # classify by amyloid nucleation score band: "KLQFVGFCTNDAKYKGRIPG"
Result: High

Request: Kindly state the category for this substance: "YSWSRVKFNSL"
Result: High

Request: Quick check: band for "ARIAETSRYKRSENSLSLV"
Result: Low

Request: Could you tell me which band "SLVIYV" belongs to?
Result: Low

Request: Category lookup for the substance "NMPEFC"
Result: Mid

Request: Field: class (amyloid nucleation score) — entry: "SSLFYERRIQLCVFI"
Result: High

Request: Lab note: which band did "VLYGVCIVCCSWSMTSC" land in?
Result: Mid

Request: Which category fits this record: "SIRSVILLCATLTSVGASLS"
Result: High

Request: Given "ILSHTGRVYKLRLYVIQIVR" , name the class its amyloid nucleation score places it in.
Result: Low

Request: Lab log: "NSRLEVGSNSKQDLMAMSKT" — assign amyloid nucleation score category
Result: Low

Request: Assign a category based on measured amyloid nucleation score for "YTVNCCIRANANGAFFSKVQ" and give only the class name.
Result: High

Request: Class? Entry: "IIGINVWM"
Result: High

Request: Band of "WEIRNAYVQVT" ?
Result: Mid

Request: Sort into band: "VQFPSVMFICRIARRRTY"
Result: Mid

Request: Consider "GEINENGKLCGGRAQGTGTY" . To which amyloid nucleation score class does it belong?
Result: Low

Request: Exercise: read the entry "PMSSMMRGSDPKV" and state which class it falls under.
Result: Mid

Request: Record "MLYSSR" — which class?
Result: Low

Request: Kindly state the category for this substance: "DFSTLAPLKLVMHI"
Result: Mid

Request: Which class does "FRLAVFSEFQCFR" fall in?
Result: High

Request: Classify this substance: "YPKSLV"
Result: Low

Request: // bin(item) where item = "TRGIVGFPD"
Result: High

Request: Category of "KKDSSWFRLNDKKVVSSHKR" :
Result: Mid

Request: Would you mind sorting "SNDLTCTYVRIQCWAMEPAS" into the appropriate category?
Result: High

Request: Assign a category based on measured amyloid nucleation score for "LLRILANQLKYYETTLCVGG" and give only the class name.
Result: Mid

Request: Into which category would you place "KLPFICINRGWWLVGRINSS" ?
Result: High

Request: Hi, small favor: classify "WRIYQDTFCLSIS" by its amyloid nucleation score when you get a moment.
Result: High

Request: Class (by measured amyloid nucleation score) for "VPSQASGTRACKHNWTVWLE"
Result: High

Request: Assign a bin to "NFYILLATGSFYAVLGCRQY"
Result: High

Request: Note: place this substance into its band. Item: "ENKGGCFARVDVGCVGSGMR"
Result: Mid

Request: Class (by measured amyloid nucleation score) for "QMMLLTV"
Result: Mid

Request: Input "ICIDRNRI" ; output its category
Result: Mid

Request: Returns: class label. Input: "IKILLCRSGARIGVSCDMSC"
Result: Mid

Request: Class (by measured amyloid nucleation score) for "FYCRVFTLSGFVRIWGDC"
Result: Low

Request: Please report the category associated with "SYANCNLNVNTLREEVHERW" , nothing else.
Result: Mid

Request: Field: class (amyloid nucleation score) — entry: "HLRIGLIN"
Result: Low

Request: Which band does "YFVFHDQKSTNLGWIFVFCR" fall in?
Result: Mid

Request: Sort "NRTAFPCFLA" into one of the categories.
Result: Low

Request: Where would "TIFLFLFSMVSVVICLMVLP" land among the classes by reported amyloid nucleation score?
Result: Low

Request: State the band of "ATCSPSVSRVLGLCSWECFR"
Result: Low

All values here come from the supplement of paper PMC12042874.
